target or system: phosphorylated EGFR (pEGFR) (Homo sapiens, UniProt P00533)
Construct: endogenous in cells
Sequence (P00533 25-1210): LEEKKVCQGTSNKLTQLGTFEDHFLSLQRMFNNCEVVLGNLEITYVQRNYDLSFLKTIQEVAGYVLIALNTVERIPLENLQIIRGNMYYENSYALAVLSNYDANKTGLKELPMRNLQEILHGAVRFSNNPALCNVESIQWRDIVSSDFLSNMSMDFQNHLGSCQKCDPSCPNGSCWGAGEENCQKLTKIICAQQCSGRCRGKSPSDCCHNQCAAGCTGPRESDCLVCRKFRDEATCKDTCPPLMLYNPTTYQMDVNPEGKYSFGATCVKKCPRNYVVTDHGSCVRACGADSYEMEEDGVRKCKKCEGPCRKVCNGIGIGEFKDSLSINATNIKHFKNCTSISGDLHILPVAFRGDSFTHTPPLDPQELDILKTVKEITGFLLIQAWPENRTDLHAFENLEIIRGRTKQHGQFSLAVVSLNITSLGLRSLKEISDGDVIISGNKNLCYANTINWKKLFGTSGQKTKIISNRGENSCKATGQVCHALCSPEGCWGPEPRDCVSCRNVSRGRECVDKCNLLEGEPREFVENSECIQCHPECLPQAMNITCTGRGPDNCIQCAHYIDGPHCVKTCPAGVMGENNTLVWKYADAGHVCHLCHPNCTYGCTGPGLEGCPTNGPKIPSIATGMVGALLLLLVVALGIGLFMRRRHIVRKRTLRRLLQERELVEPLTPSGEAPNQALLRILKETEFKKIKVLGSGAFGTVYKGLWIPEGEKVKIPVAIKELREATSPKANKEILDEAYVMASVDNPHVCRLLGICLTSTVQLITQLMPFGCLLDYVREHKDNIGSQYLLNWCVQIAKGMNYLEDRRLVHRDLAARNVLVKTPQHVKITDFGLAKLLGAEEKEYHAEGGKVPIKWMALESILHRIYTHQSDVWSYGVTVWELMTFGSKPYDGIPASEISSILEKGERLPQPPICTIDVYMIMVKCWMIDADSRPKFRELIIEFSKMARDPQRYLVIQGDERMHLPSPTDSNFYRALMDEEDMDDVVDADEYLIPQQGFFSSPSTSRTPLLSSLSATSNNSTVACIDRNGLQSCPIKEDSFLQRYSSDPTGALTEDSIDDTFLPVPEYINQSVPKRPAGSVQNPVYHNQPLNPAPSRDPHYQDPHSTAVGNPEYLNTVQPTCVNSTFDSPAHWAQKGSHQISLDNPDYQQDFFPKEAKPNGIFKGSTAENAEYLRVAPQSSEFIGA
assay info: Detection of phosphorylated EGFR (pEGFR) in EGF-stimulated A431 cells (AlphaLISA)
test conditions: A431 cells (10% FBS), 4 hours with compound, then EGF 30 ng/mL for 10 minutes
pIC50: −log10 of the molar value.
Mark label 1 for reported pIC50 of 6 or greater; mark label 0 for anything smaller.

[
  {
    "compound": "CC#CC(=O)Nc1cc2c(Nc3ccc(Cc4ccn5ncnc5c4)c(C)c3)ncnc2cc1OCCCN(C)C [Compound 189]",
    "classification": "label 1"
  },
  {
    "compound": "CC#CC(=O)Nc1ccc2ncnc(Nc3ccc(Oc4ccc5c(c4)ncn5C)c(C)c3)c2c1F [Compound 213]",
    "classification": "label 1"
  }
]

Query: // inclusive: pIC50 at least 6? input: CC#CC(=O)Nc1ccc2ncnc(Nc3cc(C)c(Oc4ccn5ncnc5c4)cc3F)c2c1F [Compound 210]
Result: label 0

* * *

Tested on: A431 cells
assay info: Cell viability assay (CellTiter Glo)
Assay type: cell-based
test conditions: Homo sapiens, A-431; 72 hours; 1500 cells per well, 384-well; DMEM + 10% FBS
Protocol: Cells were treated with compounds, and cell viability was measured as a metric of kinase inhibition. The Ba/F3 cell line is IL-3-dependent mouse cell line derived from the C3H mouse strain. […] Similarly, Ba/F3 cell lines engineered to express EGFR, ERBB2, or ERBB2 mutants were grown, harvested, counted and seeded at 3000 cells per well in 96-well plates for the data sets shown in Tables B3-B4, and seeded at 300 cells per well in 384-well plates for the data set shown in Table B5. […]
Listed below: IC50 values for each entry.

# count of solved cases: 6
[
  {
    "compound": "CC#CC(=O)Nc1ccc2ncnc(Nc3ccc(Oc4ccn(C)c(=O)c4)c(C)c3)c2c1 [Compound 3]",
    "IC50": "4440 nM"
  },
  {
    "compound": "Cc1cc(Nc2ncnc3ccc(NC4=NC(C)(C)CO4)cc23)ccc1Oc1ccn2ncnc2c1 [Tucatinib, tucatinib, reference compound]",
    "IC50": "> 10000 nM"
  },
  {
    "compound": "CC#CC(=O)N(C)c1ccc2ncnc(Nc3ccc(Oc4ccn5ncnc5c4)cc3)c2c1 [Compound 8]",
    "IC50": "> 10000 nM"
  },
  {
    "compound": "CC#CC(=O)Nc1ccc2ncnc(Nc3ccc(Cc4ccn5ncnc5c4)cc3)c2c1 [Compound 14]",
    "IC50": "3550 nM"
  },
  {
    "compound": "CC#CC(=O)Nc1ccc2ncnc(Nc3ccc(Oc4ccn5ncnc5c4)c(C)c3)c2c1 [Compound 1]",
    "IC50": "1730 nM"
  },
  {
    "compound": "CC#CC(=O)Nc1ccc2ncnc(Nc3ccc(Oc4cnc(C)cn4)cc3)c2c1 [Compound 10]",
    "IC50": "1080 nM"
  }
]

Please look at the following compound next.
Query: Provide measured IC50 on A431 cells for CC#CC(=O)Nc1ccc2ncnc(Nc3ccc(Oc4ccc(C)nc4)cc3)c2c1 [Compound 9] please.
Result: 454 nM

* * *

target or system: phosphorylated EGFR (pEGFR) (Homo sapiens, UniProt P00533)
Construct: endogenous in cells
assay info: Detection of phosphorylated EGFR (pEGFR) in EGF-stimulated A431 cells (AlphaLISA)
test conditions: A431 cells (10% FBS), 4 hours with compound, then EGF 30 ng/mL for 10 minutes
pIC50: −log10 of the molar value. Where a name gives a salt, the structure may show the parent alone.
Mark 1 for reported pIC50 of 6 or greater; mark -1 for anything smaller.

[
  {
    "compound": "Cc1cc(Nc2ncnc3ccc(NC(=O)C#CC4CC4)cc23)ccc1Oc1ccc([C@@H](F)CF)nc1",
    "classification": 1
  },
  {
    "compound": "Cc1cc(Nc2ncnc3cc(OCCN(C)C)c(NC(=O)C#CC4CC4)cc23)ccc1Oc1ccn2ncnc2c1 [Compound 170, hydrochloride]",
    "classification": 1
  },
  {
    "compound": "Cc1c(Oc2ccn3ncnc3c2)ccc(Nc2ncnc3cc(OCCN(C)C)c(NC(=O)C#CC4CC4)cc23)c1F",
    "classification": -1
  },
  {
    "compound": "Cc1cc(Nc2ncnc3cc(OCCN(C)C)c(NC(=O)C#CC(C)(C)C)cc23)ccc1Oc1ccn2ncnc2c1",
    "classification": -1
  },
  {
    "compound": "Cc1cc(Nc2ncnc3cc(OCCO)c(NC(=O)C#CC4CC4)cc23)ccc1Oc1ccn2ncnc2c1",
    "classification": 1
  }
]

Then this compound:
Query: // inclusive: pIC50 at least 6? input: CC#CC(=O)Nc1cc2c(Nc3ccc(Oc4ccn5ncnc5c4)c(F)c3)ncnc2cc1OCCN(C)C
Result: 1

From: patent US20230265098A1
